# experimental parameters: 298.15 K; 101.33 kPa; Liquid; Vibrating tube method
# binarize mass density: threshold 900 kg/m3 inclusive, high side YES, low side NO

A selection of reference data follows.
{"columns": ["molecule", "class assignment"],
 "data": [
  ["C[SiH]1O[SiH](C)O[SiH](C)O[SiH](C)O1 (stereo unspecified)", "YES"],
  ["Cc1cccc(C)c1", "NO"],
  ["Cc1ccc(C)cc1", "NO"]
]}

Field: next molecule
Does the reported mass density for Cc1ccccc1 fall at or above the 900 kg/m3 mark?
NO

Where do these numbers come from? They come from the NIST ThermoML archive (doi:10.1021/je2009736).
